Biological target: NRP1 b1 domain (Homo sapiens, UniProt O14786)
Sequence (O14786 275-424 limits assumed): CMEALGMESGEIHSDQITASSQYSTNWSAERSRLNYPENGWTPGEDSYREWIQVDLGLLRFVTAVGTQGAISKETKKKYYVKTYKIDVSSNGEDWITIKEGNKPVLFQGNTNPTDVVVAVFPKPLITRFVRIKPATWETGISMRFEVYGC
Experiment: ITC binding to NRP1 b1 domain
Conditions: read-out: Kd for NRP1 b1 domain, EG00229, pH 7.5, N=3, fit with 1-to-1 ratio binding
RECORDED METRIC: Kd (µM)
Numbers only, in µM.

Query block: Item: NC(N)=NCCC[C@H](NC(=O)c1sccc1NS(=O)(=O)c1cccc2nsnc12)C(=O)O Test system: NRP1 b1 domain (Homo sapiens, UniProt O14786) Read-out: Kd Value: ?
Result block: 5.1
